Sourced from ChEMBL document CHEMBL3351422

logP values, listed per item
methodSummary: Lipophilicity, log P of the compound
Type: physicochemical
measurementParameters: octanol/water
Please reply with the number alone, leaving off any unit.

Exam item: Report logP for CCOC(=O)N1CCC(CN2CCC3(CC2)CN(C(=O)NC)c2ncccc23)CC1 please.
Marked response: 2.5

Exam item: Here is the next compound: CCOC(=O)N1CCC(CN2CCC3(CC2)CN(C(=O)N(C)C)c2ncccc23)CC1.O=C(O)/C=C/C(=O)O
Marked response: 1.3

Exam item: Here is the next compound: CCOC(=O)N1CCC(CN2CCC3(CC2)CN(C(N)=O)c2ncccc23)CC1
Marked response: 2

----------
methodSummary: Half life in monkey at 0.25 mg/kg, iv and 2.5 mg/kg, po
Type: ADME, organism-based, Macaca mulatta
measurementParameters: rhesus monkey, in vivo
propertyName: half-life (h)
Output spec: scalar in h, unitless text.

Exam item: Report half-life for CCOC(=O)N1CCC(CN2CCC3(CC2)CN(C(=O)N(C)C)c2ncccc23)CC1.O=C(O)/C=C/C(=O)O please.
Marked response: 4.76

----------
testTarget: hERG (KCNH2) (Homo sapiens, UniProt Q12809)
Sequence (Q12809 whole entry): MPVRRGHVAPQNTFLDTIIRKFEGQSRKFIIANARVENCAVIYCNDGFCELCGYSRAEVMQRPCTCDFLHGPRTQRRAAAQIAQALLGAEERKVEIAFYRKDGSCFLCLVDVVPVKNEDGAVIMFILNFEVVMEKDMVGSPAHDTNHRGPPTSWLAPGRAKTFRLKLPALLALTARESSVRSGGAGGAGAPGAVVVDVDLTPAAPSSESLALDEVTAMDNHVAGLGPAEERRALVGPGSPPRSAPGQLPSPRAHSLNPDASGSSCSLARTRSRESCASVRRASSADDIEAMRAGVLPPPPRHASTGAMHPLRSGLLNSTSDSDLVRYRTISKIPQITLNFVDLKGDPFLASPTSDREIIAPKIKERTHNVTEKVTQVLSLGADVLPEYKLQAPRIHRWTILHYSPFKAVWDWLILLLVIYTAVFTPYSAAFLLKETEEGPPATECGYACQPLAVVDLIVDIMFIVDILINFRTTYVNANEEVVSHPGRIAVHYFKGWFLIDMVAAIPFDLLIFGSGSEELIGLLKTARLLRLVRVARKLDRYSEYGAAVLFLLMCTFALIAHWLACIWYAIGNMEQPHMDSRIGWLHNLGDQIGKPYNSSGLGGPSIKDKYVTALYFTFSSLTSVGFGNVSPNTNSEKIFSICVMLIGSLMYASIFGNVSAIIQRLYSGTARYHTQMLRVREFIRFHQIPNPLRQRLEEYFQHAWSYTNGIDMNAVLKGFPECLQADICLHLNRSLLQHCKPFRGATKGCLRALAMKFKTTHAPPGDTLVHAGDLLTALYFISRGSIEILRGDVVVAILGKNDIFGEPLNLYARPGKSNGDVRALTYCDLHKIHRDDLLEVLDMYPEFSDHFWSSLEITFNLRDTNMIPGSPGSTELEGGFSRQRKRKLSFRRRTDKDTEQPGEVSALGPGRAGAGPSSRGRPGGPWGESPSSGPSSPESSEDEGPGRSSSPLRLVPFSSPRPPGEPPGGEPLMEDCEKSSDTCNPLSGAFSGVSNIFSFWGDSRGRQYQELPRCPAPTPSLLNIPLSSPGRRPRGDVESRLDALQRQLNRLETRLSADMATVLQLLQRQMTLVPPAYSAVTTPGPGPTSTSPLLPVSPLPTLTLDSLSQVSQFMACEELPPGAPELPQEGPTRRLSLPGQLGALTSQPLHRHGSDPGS
methodSummary: Inhibition of human ERG channel at 3 uM by radioligand binding assay
propertyName: inhibition at 3 µM (%)
Output spec: scalar in %, unitless text.

Exam item: Report inhibition at 3 µM for CCOC(=O)N1CCC(CN2CCC3(CC2)CN(C(=O)N(C)C)c2ncccc23)CC1.O=C(O)/C=C/C(=O)O please.
Marked response: 0

----------
methodSummary: Oral bioavailability in monkey at 2.5 mg/kg
Format: ADME, organism-based, Macaca mulatta
measurementParameters: rhesus monkey, in vivo
propertyName: bioavailability (%)
Output spec: scalar in %, unitless text.

Exam item: Report bioavailability for CCOC(=O)N1CCC(CN2CCC3(CC2)CN(C(=O)N(C)C)c2ncccc23)CC1.O=C(O)/C=C/C(=O)O please.
Marked response: 39.8

----------
Activity values, listed per item
testTarget: Muscarinic acetylcholine receptor M3 (Homo sapiens) (UniProt P20309)
Sequence (P20309 whole entry, looked up): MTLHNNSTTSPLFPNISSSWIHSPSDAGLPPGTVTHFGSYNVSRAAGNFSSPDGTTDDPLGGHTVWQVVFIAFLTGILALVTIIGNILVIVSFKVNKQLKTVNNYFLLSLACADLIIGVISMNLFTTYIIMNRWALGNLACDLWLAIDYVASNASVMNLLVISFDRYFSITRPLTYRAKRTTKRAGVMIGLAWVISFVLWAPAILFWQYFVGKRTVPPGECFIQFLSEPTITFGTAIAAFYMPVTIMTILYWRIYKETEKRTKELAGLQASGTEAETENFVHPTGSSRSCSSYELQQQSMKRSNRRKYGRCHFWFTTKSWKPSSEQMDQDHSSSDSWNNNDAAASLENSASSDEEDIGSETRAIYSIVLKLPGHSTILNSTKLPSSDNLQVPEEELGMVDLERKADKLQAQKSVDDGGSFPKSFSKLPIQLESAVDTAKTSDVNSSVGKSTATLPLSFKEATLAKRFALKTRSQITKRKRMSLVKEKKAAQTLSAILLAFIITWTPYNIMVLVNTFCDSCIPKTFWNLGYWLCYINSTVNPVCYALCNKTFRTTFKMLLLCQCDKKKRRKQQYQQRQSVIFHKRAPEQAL
methodSummary: Agonist activity at muscarinic M3 receptor (unknown origin) at 0.3 uM by calcium mobilization assay
Assay type: functional
Output spec: scalar in %, unitless text.

These solved cases illustrate the format of a correct answer.
{"columns": ["givenSmiles", "reported"],
 "data": [
  ["CCOC(=O)N1CCC(CN2CCC3(CC2)CN(C(N)=O)c2ncccc23)CC1", 11],
  ["CCOC(=O)N1CCC(CN2CCC3(CC2)CN(C(=O)N(C)C)c2ncccc23)CC1.O=C(O)/C=C/C(=O)O", 2],
  ["CCOC(=O)N1CCC(CN2CCC3(CC2)CN(S(C)(=O)=O)c2ncccc23)CC1", 7]
]}

Switching to the query record.
Exam item: Value wanted: Activity (Muscarinic acetylcholine receptor M3 (Homo sapiens) (UniProt P20309)) of entry CCOC(=O)N1CCC(CN2CCC3(CC2)CN(C(=O)NC)c2ncccc23)CC1
Marked response: 8

----------
testTarget: Muscarinic acetylcholine receptor M4 (Homo sapiens)
Sequence (whole entry): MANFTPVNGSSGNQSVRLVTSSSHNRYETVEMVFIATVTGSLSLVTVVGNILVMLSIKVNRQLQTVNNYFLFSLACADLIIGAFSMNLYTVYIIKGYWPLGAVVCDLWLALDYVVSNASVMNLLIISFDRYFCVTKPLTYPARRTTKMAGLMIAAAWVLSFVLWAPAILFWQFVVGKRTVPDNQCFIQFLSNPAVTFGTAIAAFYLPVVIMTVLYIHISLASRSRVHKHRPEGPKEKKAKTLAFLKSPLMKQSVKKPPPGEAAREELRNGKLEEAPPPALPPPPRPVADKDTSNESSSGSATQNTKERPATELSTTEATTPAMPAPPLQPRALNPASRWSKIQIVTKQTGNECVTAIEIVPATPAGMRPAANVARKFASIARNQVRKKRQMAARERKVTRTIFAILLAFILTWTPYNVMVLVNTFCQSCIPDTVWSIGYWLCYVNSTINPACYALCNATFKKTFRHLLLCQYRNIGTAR
methodSummary: Agonist activity at muscarinic M4 receptor (unknown origin) at 1 uM by calcium mobilization assay
Type: functional
Activity values, listed per item
Output spec: scalar in %, unitless text.

These solved cases illustrate the format of a correct answer.
{"columns": ["givenSmiles", "testTarget", "propertyName", "reported"],
 "data": [
  ["CCOC(=O)N1CCC(CN2CCC3(CC2)CC(=O)N(CC)c2ncccc23)CC1", "Muscarinic acetylcholine receptor M4 (Homo sapiens)", "Activity", 134],
  ["CCNC(=O)N1CC2(CCN(CC3CCN(C(=O)OCC)CC3)CC2)c2cccnc21", "Muscarinic acetylcholine receptor M4 (Homo sapiens)", "Activity", 77]
]}

Exam item: Report Activity for CCOC(=O)N1CCC(CN2CCC3(CC2)CN(CC)c2ncccc23)CC1 please.
Marked response: 58

Exam item: Here is the next compound: CCOC(=O)N1CCC(CN2CCC3(CC2)CN(C(=O)N(CC)CC)c2ncccc23)CC1
Marked response: 132

Exam item: Here is the next compound: CCOC(=O)N1CCC(CN2CCC3(CC2)CN(C(=O)OC)c2ncccc23)CC1
Marked response: 7
